System: Echinochloa crus-galli
assay_protocol: Herbicidal activity against Echinochloa crus-galli (barnyard grass) assessed as growth inhibition at 100 ug/mL
Format: functional
condition_description: (L.) Beauv, read-out: GI
measure_name: inhibition of growth at 100 µg/mL (%)
Record the value in %, omitting the unit from your answer.

Enquiry: For the molecule COc1ccc(/C(O)=C2\C(=O)CN(C)C2=O)cc1 , give its measured inhibition of growth at 100 µg/mL value.
Return: 78.8

Enquiry: Tell me measured inhibition of growth at 100 µg/mL for CC(C)N1CC(=O)/C(=C(/O)c2ccccc2Cl)C1=O please.
Return: 77.9

Enquiry: Return inhibition of growth at 100 µg/mL (reported value) for this molecule: CC(C)N1CC(=O)/C(=C(/O)c2ccc([N+](=O)[O-])cc2)C1=O
Return: 1.6

Enquiry: Supply measured inhibition of growth at 100 µg/mL of CC(C)N1CC(=O)/C(=C(/O)c2cccc([N+](=O)[O-])c2)C1=O in your reply.
Return: 42

Enquiry: Indicate the recorded inhibition of growth at 100 µg/mL value for this molecule: Cc1cccc(/C(O)=C2\C(=O)CN(C(C)(C)C)C2=O)c1
Return: 48.5

Enquiry: Please report inhibition of growth at 100 µg/mL for the following molecule: CS(=O)(=O)c1ccc(C(=O)C2C(=O)CCCC2=O)c(Cl)c1
Return: 45.1

Enquiry: // Input: CC(C)N1CC(=O)/C(=C(/O)c2ccc(Cl)cc2)C1=O . Output its inhibition of growth at 100 µg/mL only.
Return: 68

Enquiry: Supply measured inhibition of growth at 100 µg/mL of Cc1ccccc1/C(O)=C1\C(=O)CN(C(C)C)C1=O in your reply.
Return: 77.3

Enquiry: Provide one value: measured inhibition of growth at 100 µg/mL of CC(C)(C)N1CC(=O)/C(=C(/O)c2ccc(Cl)cc2)C1=O
Return: 20.8

Enquiry: Read off the recorded inhibition of growth at 100 µg/mL for CN1CC(=O)/C(=C(/O)c2cccc([N+](=O)[O-])c2)C1=O
Return: 42.8

Enquiry: Give inhibition of growth at 100 µg/mL for COc1ccccc1/C(O)=C1\C(=O)CN(C(C)(C)C)C1=O
Return: 82.9

Enquiry: Report inhibition of growth at 100 µg/mL for CC(C)(C)N1CC(=O)/C(=C(/O)c2cccc([N+](=O)[O-])c2)C1=O
Return: 0.5

Enquiry: Using known records, supply inhibition of growth at 100 µg/mL for Cc1ccc(/C(O)=C2\C(=O)CN(C(C)(C)C)C2=O)cc1
Return: 48

Enquiry: For CC(C)(C)N1CC(=O)/C(=C(/O)c2ccc([N+](=O)[O-])cc2)C1=O , write its inhibition of growth at 100 µg/mL.
Return: 9.8

Enquiry: Given the molecule COc1ccc(/C(O)=C2\C(=O)CN(C(C)C)C2=O)cc1 , write its reported inhibition of growth at 100 µg/mL.
Return: 80

Enquiry: # return recorded inhibition of growth at 100 µg/mL for input Cc1ccc(/C(O)=C2\C(=O)CN(C(C)C)C2=O)cc1
Return: 78.4

Enquiry: Could you please provide reported inhibition of growth at 100 µg/mL for Cc1ccccc1/C(O)=C1\C(=O)CN(C(C)(C)C)C1=O ? Thanks!
Return: 74.4

Enquiry: Consider the molecule Cc1cccc(/C(O)=C2\C(=O)CN(C)C2=O)c1 . State its measured inhibition of growth at 100 µg/mL.
Return: 68.3

Enquiry: Please supply the value of reported inhibition of growth at 100 µg/mL for the item CN1CC(=O)/C(=C(/O)c2ccc(Cl)cc2)C1=O
Return: 50.1

Enquiry: Item COc1ccccc1/C(O)=C1\C(=O)CN(C(C)C)C1=O : provide inhibition of growth at 100 µg/mL
Return: 78.1

Enquiry: Could you please provide reported inhibition of growth at 100 µg/mL for Cc1ccccc1/C(O)=C1\C(=O)CN(C)C1=O ? Thanks!
Return: 78.3

Enquiry: Determine its reported inhibition of growth at 100 µg/mL: Cc1cccc(/C(O)=C2\C(=O)CN(C(C)C)C2=O)c1
Return: 75.5

Enquiry: Output inhibition of growth at 100 µg/mL of COc1ccc(/C(O)=C2\C(=O)CN(C(C)(C)C)C2=O)cc1
Return: 80.3

Enquiry: Write down inhibition of growth at 100 µg/mL measured for item CN1CC(=O)/C(=C(/O)c2ccc([N+](=O)[O-])cc2)C1=O
Return: 51.9
